Measured z-score of individual entries
# assay remarks: P. aeruginosa biofilm formation inhibitors, primary screen, strain PAO1, LB-PBS medium, absorbance 600 nm (AID 1176); note: test concentration not given here
# setup conditions: P. aeruginosa PAO1 growth/biofilm, A600, 12 h; higher = more signal
Write the number on its own, no unit after it.

Guide cases for z-score, answers given:
                                   molecule  measured_property  readout_value
0  CC(C)CON=C1C[C@@H](O)[C@@H](O)[C@@H]2[C@@H]3C(=O)N(c4ccc(F)cc4F)C(=O)[C@@H]3CC[C@H]12            z-score          0.246
1  CON=C(C)CCC(=O)OC[C@H]1O[C@H](c2ccccc2)C=C[C@@H]1Oc1ccc(OC)cc1            z-score         0.0981
2  Cc1cc2c(nc1C)CCCCN2CC(C)ON=C[C@@H](C)[C@H](OCc1ccccc1)C(C)C (stereo not given in full)            z-score          0.675
3  Cc1ccc(S(=O)(=O)OC[C@H]2CN3[C@H](c4ccc(Br)cc4)[C@@H](C)CC[C@H]3C(=O)O2)cc1            z-score           1.29
4  O=C1C=C[C@@H](O)[C@@H]2[C@@H]3C(=O)N(c4ccc(F)cc4F)C(=O)[C@@H]3CC[C@@H]12            z-score          0.565
5  COC(=O)CC=C[C@@H](C)[C@@H](C=NO[C@H](C)c1cn([C@H](CO)Cc2ccccc2)nn1)OC            z-score          0.368
6  CC(C)CON=C1C[C@@H](O)[C@@H](O)[C@@H]2[C@@H]3C(=O)N(c4cccc(Oc5ccccc5)c4)C(=O)[C@@H]3CC[C@@H]12            z-score          0.659
7  CCOC(=O)NN=C1C[C@@H](O)[C@@H](O)[C@@H]2[C@@H]3C(=O)N([C@@H](C)c4ccccc4)C(=O)[C@@H]3CC[C@H]12            z-score         0.0942
8  CON=Cc1ccc(C(=O)N2[C@H](c3ccc(C)cc3)[C@@H](C)CC[C@H]2C(=O)OC)cc1            z-score         -0.066
9  CCOC(=O)[C@H](Cc1ccccc1)NC(=O)CCC1CC(OC(=O)NCc2ccc3c(c2)OCO3)CC2(CCCC(COC(=O)NCCC(C)C)O2)O1 (stereo not given in full)            z-score          -1.17

Attention now turns to another entry.
Problem: Supply recorded z-score for CCOC(=O)[C@H](Cc1ccccc1)NC(=O)CCC1CC(OC(=O)NCCc2ccc(F)cc2)CC2(CCCC(COC(=O)NCCCN3CCCC3=O)O2)O1 (stereo not given in full) here.
Solution: 0.781

* * *

# assay remarks: S. cerevisiae growth modulation with rapamycin, primary screen, strain BY4716, OD600, 96 h (AID 1091); note: test concentration not given here
# setup conditions: higher = more signal, called active from +8 up or from −8 down
measured property: z-score
# respond with the number and nothing more

Recorded results for 6 compounds are shown here.
compound	z-score
CCCNC(=O)OC[C@H]1O[C@H](CCON=C(C)CCN2CCCc3nc(C)c(C)cc32)C=C[C@@H]1Oc1ccc(OC)cc1	-0.0042
CC(C)CCN1CCc2nc(COc3ccccc3)c3c(c2C1)CO[C@@H](C)C3	-0.531
CCc1cc2c(nc1CC)CCN(CCC(C)=NO[C@@H](C)c1cn([C@H](CO)Cc3ccccc3)nn1)C2	-0.215
O=C(NN=C1C[C@@H](O)[C@@H](O)[C@@H]2[C@@H]3C(=O)N(C4CCCCC4)C(=O)[C@@H]3CC[C@@H]12)OCc1ccccc1	-0.157
O=C1[C@H]2[C@H]3[C@H](O)[C@H](O)CC(=NO[C@@H]4O[C@H](CO)[C@@H](O)[C@H](O)[C@H]4O)[C@H]3CC[C@H]2C(=O)N1c1cccc(Oc2ccccc2)c1	-0.642
O=C(NN=C1C[C@@H](O)[C@@H](O)[C@@H]2[C@@H]3C(=O)N(Cc4ccccc4)C(=O)[C@@H]3CC[C@@H]12)OCc1ccccc1	-0.413

Problem: Query z-score for `CC(C)(C)N1C(=O)[C@H]2[C@H]3[C@H](O)[C@H](O)CC(=O)[C@H]3CC[C@H]2C1=O`
Solution: 0.85

Problem: Supply recorded z-score for `CO[C@H]1COC(=O)CC=C[C@@H](C)[C@H](NS(=O)(=O)c2ccc(C)cc2)COC(=O)CCC[C@@H]1C` here.
Solution: -0.726

Problem: Return z-score for the following compound: `CC(C)CON=C1C[C@@H](O)[C@@H](O)[C@@H]2[C@@H]3C(=O)N(c4ccc(F)cc4F)C(=O)[C@@H]3CC[C@H]12`
Solution: -0.337

Problem: State, in one line, measured z-score of `C#CCCCON=C1C[C@@H](O)[C@@H](O)[C@@H]2[C@@H]3C(=O)N(CCC(=O)OCC)C(=O)[C@@H]3CC[C@H]12`
Solution: -0.947

Problem: Entry `COC(=O)[C@@H]1CC[C@@H](C)[C@H](c2ccc(Br)cc2)N1` needs its z-score filled in; supply it.
Solution: -0.116

Problem: Note z-score for the compound shown: `CCCNC(=O)OC[C@H]1O[C@H](c2ccccc2)C=C[C@@H]1Oc1ccc(OC)cc1`
Solution: 0.0199

* * *

# system under test: Follistatin (Homo sapiens) (UniProt P19883)
# Sequence (P19883 whole entry, looked up): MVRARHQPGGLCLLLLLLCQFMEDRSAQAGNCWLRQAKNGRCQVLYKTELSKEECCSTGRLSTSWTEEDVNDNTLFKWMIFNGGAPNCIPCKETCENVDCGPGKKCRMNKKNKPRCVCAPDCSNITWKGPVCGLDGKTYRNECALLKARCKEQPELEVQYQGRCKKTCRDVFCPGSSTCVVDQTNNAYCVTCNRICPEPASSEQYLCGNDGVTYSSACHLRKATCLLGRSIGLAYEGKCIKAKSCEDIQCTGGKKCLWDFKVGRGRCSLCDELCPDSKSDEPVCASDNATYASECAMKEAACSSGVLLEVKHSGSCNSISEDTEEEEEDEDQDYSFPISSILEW
# assay remarks: follistatin binders on small-molecule microarrays, primary screen, biochemical, small-molecule microarray, 635/667 nm fluorescence (AID 1132)
# setup conditions: FST binding, 635 nm fluorescence, higher = more signal
measured property: composite z-score
# output: bare number, no unit

Some compounds with recorded composite z-score:
>>> df
                                   compound                         system_under_test  measured_property  readout_value
0  CC(CCN1CCCCc2nc(C)c(C)cc21)=NOC[C@@H](O)COCc1ccco1  Follistatin (Homo sapiens) (UniProt P19883)  composite z-score           1.42
1  CCOC(=O)[C@H](CC(C)C)NC(=O)CCC1CC(OC(=O)NCCc2ccc(F)cc2)CC2(CCCC(COC(=O)NCCOc3ccccc3)O2)O1 (stereo partly specified)  Follistatin (Homo sapiens) (UniProt P19883)  composite z-score          0.826
2  CCOC(=O)CCN1C(=O)[C@H]2[C@H]3[C@H](O)[C@H](O)CC(=NNC(=O)OCc4ccccc4)[C@@H]3CC[C@H]2C1=O  Follistatin (Homo sapiens) (UniProt P19883)  composite z-score          0.937
3        O=C(C=Cc1ccc2c(c1)OCO2)c1ccc(F)cc1  Follistatin (Homo sapiens) (UniProt P19883)  composite z-score          0.853
4  CCOC(=O)C1=NO[C@@]2(C=C(Br)C3(OCCCO3)[C@H]3O[C@H]32)C1  Follistatin (Homo sapiens) (UniProt P19883)  composite z-score           1.43
5  CCCNC(=O)OC[C@H]1O[C@H](c2ccccc2)C=C[C@@H]1Oc1ccc(OC)cc1  Follistatin (Homo sapiens) (UniProt P19883)  composite z-score         -0.143
6  CCOC(=O)[C@H](Cc1ccccc1)NC(=O)CCC1CC(OC(=O)NCc2cccc3ccccc23)CC2(CCCC(COC(=O)NCc3ccccc3)O2)O1 (stereo partly specified)  Follistatin (Homo sapiens) (UniProt P19883)  composite z-score          0.449
7  COc1ccc(O[C@H]2C=C[C@@H](c3ccccc3)O[C@@H]2CON=CC[C@@H]2C=C[C@H](OC(C)=O)[C@@H](COC(C)=O)O2)cc1  Follistatin (Homo sapiens) (UniProt P19883)  composite z-score          0.229
8  CCN1C(=O)[C@H]2[C@H]3[C@H](O)[C@H](O)CC(=O)[C@H]3CC[C@H]2C1=O  Follistatin (Homo sapiens) (UniProt P19883)  composite z-score          0.486
9  O=C1[C@H]2[C@H]3[C@H](O)[C@H](O)CC(=NOC[C@@H](O)COCc4ccco4)[C@H]3CC[C@H]2C(=O)N1C[C@@H]1CCCO1  Follistatin (Homo sapiens) (UniProt P19883)  composite z-score          0.987

Problem: Input `COC(=O)CC=C[C@@H](C)[C@H](OCc1cccc(-c2ccccc2)c1)C1CCCCC1` , output reported composite z-score.
Solution: 0.768

Problem: Find the measured composite z-score of `COc1ccc(O[C@H]2C=C[C@@H](c3ccccc3)O[C@@H]2CON=C2[C@H]3CCn4c(=O)n(-c5ccccc5)c(=O)n4[C@H]3[C@H](O)[C@@H]3O[C@H]23)cc1` and report it.
Solution: 0.356

Problem: Identify measured composite z-score associated with `COc1cccc([C@H]2Oc3ccc(OC)cc3C(=NO[C@@H](C)c3cn([C@H](CO)Cc4ccccc4)nn3)[C@@H]2O)c1`
Solution: -0.476

Problem: Identify composite z-score associated with the compound `CO[C@H](C1CCCCC1)[C@H](C)C=CCC(=O)OCCCc1ccccc1`
Solution: 0.351

Problem: Give the measured composite z-score for `CCCCc1nc2c(c3c1C[C@H](C)OC3)CN(CCOc1ccccc1)CC2`
Solution: 0.766

Problem: State its composite z-score for this compound: `COC(=O)CC=C[C@@H](C)[C@@H](C=NO[C@@H](C)c1cn([C@H](CO)Cc2ccccc2)nn1)NS(=O)(=O)c1ccc(C)cc1`
Solution: 0.95

All values here come from PubChem BioAssay.
